# ASSAY PROTOCOL: pKA value by titration with hydrochloric acid
# Format: physicochemical
# APPLIED CONDITIONS: aqueous solution, aqueous solution 0.005 mol amine per liter, HCl 0.1 mol/L, 20° C.; read-out: pKA 1
RECORDED METRIC: pKa

Would you mind telling me what pKa value was observed for CCN(CC)CCN1CCN(CC)CC1 [DEAE-EPIP, reference compound] ?
10.3

// lookup pKa for CN1CCN(CCCNC(C)(C)C)CC1 [TBAP-MPIP]
10.7

Item under review: CN1CCN(CCNC(C)(C)C)CC1 [TBAE-MPIP] . Reported pKa?
10

----------
# ASSAY PROTOCOL: pKA value by titration with hydrochloric acid
# Type: physicochemical
# APPLIED CONDITIONS: aqueous solution, aqueous solution 0.005 mol amine per liter, HCl 0.1 mol/L, 20° C.; read-out: pKA 2
Kindly supply the reported pKa values for the records listed here.
Give only the figure.

Given CCN(CC)CCN1CCN(CC)CC1 [DEAE-EPIP, reference compound] , state its recorded pKa.
8.61

Consider the compound shown here: CN1CCN(CCNC(C)(C)C)CC1 What is its recorded pKa?
8.82

Reported pKa for CN1CCN(CCCNC(C)(C)C)CC1 : what is it?
7.68
